Tested on: DRG action potentials
Assay: Current clamp recording of cultured DRG neuron action potentials
Assay type: cell-based, mouse
Details: Mus musculus, DRG neuron; elicited by 80 pA of injected current; 2-4 minutes of extracellular drug treatment; read-out: IC50 against action potential firing frequency
Reported Endpoint: IC50 (µM)
Write the number in µM without appending the unit.

Record summary for CC/C(=C(\c1ccccc1)c1ccc(OCCNC)cc1)c1ccccc1 : reported IC50 = 0.119
